The measured values listed here are drawn from patent US20240158355A1.

Measured half-life at 2 μM by item
ASSAY_COMMENT: Metabolic stability assay in mouse liver microsomes
Type: in vitro ADME
PROTOCOL_CONDITIONS: 2.0 μM, 0.5 mg protein/mL, 37° C., read-out: MLM t1/2
Entry rule: numbers only, all in min.

Answered examples (4):
> print(dat)
                                 smiles.str  readout.value
1  CNC(=O)c1ccc(C(=O)Nc2cc(NC(=O)c3ccc4c(c3)c(-c3ccc(C)cc3C)nn4C)ccc2OC)cc1             20
2  CNC(=O)c1ccc(C(=O)Nc2cc(NC(=O)c3ccc4c(c3)c(-c3ccc(N)cc3)nn4C)ccc2OC)cc1             51
3  CNC(=O)c1ccc(C(=O)Nc2cc(NC(=O)c3ccc4c(c3)c(-c3cc5ccccc5n3C)nn4C)ccc2OC)cc1             31
4  CNC(=O)c1ccc(C(=O)Nc2cc(NC(=O)c3ccc4c(c3)c(-c3ccccc3C)nn4C)ccc2OC)cc1             40

Query compound follows.
# lookup: half-life at 2 μM of CNC(=O)c1ccc(C(=O)Nc2cc(NC(=O)c3ccc4c(c3)c(-c3ccc(N)cc3C)nn4C)ccc2OC)cc1
14
